Tested on: HeLa cells expressing mt-Keima and YFP-Parkin (HeLa MKYP)
assayName: Human mt-Keima mitophagy assay
Assay type: cell-based
recordedConditions: Homo sapiens, HeLa, 16 hrs with compound, then FCCP/oligomycin for 6 hours, FACS
measuredAttribute: EC50 (nM)
Answers are plain numbers, in nM.

C[C@@H]1CN([C@H]2COc3cc(F)ccc3[C@@H]2Nc2ncnc3c2cc(C(F)(F)F)n3C)CCO1 [EP-0043854] : 250
FC(F)(F)c1cc2c(N[C@H]3c4ccccc4OC[C@@H]3N3CCOC4(CC4)C3)nccc2[nH]1 [EP-0043895] : 170
OC1([C@H]2COc3ccccc3[C@@H]2Nc2ncnc3[nH]c(C(F)(F)F)cc23)CCOCC1 [EP-0042356] : 218

Provide the reported EC50 of each entry below, same order.
1. COC1CN([C@H]2COc3ccccc3[C@@H]2Nc2nccc3[nH]c(C(F)(F)F)cc23)C1 [EP-0043896]
2. FC(F)(F)c1cc2c(N[C@H]3c4ccccc4OC[C@@H]3C3(F)CCOCC3)ncnc2[nH]1 [EP-0043236]
3. FC(F)(F)c1cc2c(N[C@H]3c4ccccc4OC[C@@H]3N3CCCC3)nccc2[nH]1 [EP-0043873]

Ans.
150
415
130

Provide the reported EC50 of each entry below, same order.
1. FC(F)C1CCN([C@H]2COc3ccccc3[C@@H]2Nc2ncnc3[nH]c(C(F)(F)F)cc23)C1 (stereo partly drawn) [EP-0043845]
2. C[C@@H]1CN([C@H]2COc3cc(F)ccc3[C@@H]2Nc2nccc3[nH]c(C(F)(F)F)cc23)CCO1 [EP-0043830]
3. FC1(F)CCN([C@H]2COc3ccccc3[C@@H]2Nc2ncnc3[nH]c(C4CC4)cc23)C1 [EP-0042660]
4. CO[C@@H]1CCN([C@H]2COc3cc(F)ccc3[C@@H]2Nc2ncnc3[nH]c(C(F)(F)F)cc23)C1 [EP-0043690]
5. Fc1ccc2c(c1)OC[C@H](N1CCC3(CC3)C1)[C@H]2Nc1ncnc2[nH]c(C(F)(F)F)cc12 [EP-0043913]

Ans.
1: 40; 2: 50; 3: 139; 4: 140; 5: 370

Provide the reported EC50 of each entry below, same order.
1. c1ccc2c(c1)OC[C@H](N1CCCC1)[C@H]2Nc1ncnc2[nH]c(C3CC3)cc12 [EP-0042659]
2. FC(F)OC1CN([C@H]2COc3ccccc3[C@@H]2Nc2ncnc3[nH]c(C4CC4)cc23)C1 (relative stereo) [EP-0041832]
3. F[C@@H]1CCN([C@H]2COc3ccccc3[C@@H]2Nc2ncnc3[nH]c(C4CC4)cc23)C1 [EP-0042534]
4. CO[C@H]1CCCN([C@H]2COc3ccccc3[C@@H]2Nc2ncnc3[nH]c(C4CC4)cc23)C1 [EP-0042537]

Ans.
1. 251
2. 346
3. 349
4. 268

* * *

Test system: SKOV3 cells
assayName: In vitro mitosafety (glucose/galactose) assay
Assay type: cell-based
recordedConditions: highest mito-safe dose (gal/glc >0.80, IC20, SKOV3 cells, 20 hours) divided by mt-Keima EC50
Please assign a class to every record based on measured Mito-Safety Index (highest safe dose/EC50), with ranges one (below 70), two (70 to below 100), three (100 or more)

Study these solved cases before continuing.
FC(F)OC1CN([C@H]2COc3ccccc3[C@@H]2Nc2ncnc3[nH]c(C4CC4)cc23)C1 (relative stereo) : two
F[C@H]1CCN([C@H]2COc3ccccc3[C@@H]2Nc2ncnc3[nH]c(C4CC4)cc23)C1 : two
COC1CN([C@H]2COc3ccccc3[C@@H]2Nc2nccc3[nH]c(C(F)(F)F)cc23)C1 : three
C[C@@H]1CN([C@H]2COc3c(F)cccc3[C@@H]2Nc2ncnc3[nH]c(C(F)(F)F)cc23)CCO1 : three

Qu. Input c1ccc2c(c1)OC[C@H](N1CCCC1)[C@H]2Nc1ncnc2[nH]c(C3CC3)cc12 ; output its category
Ans. one

Qu. Input Fc1ccc2c(c1)OC[C@H](N1CC[C@H](F)C1)[C@H]2Nc1ncnc2[nH]c(C(F)(F)F)cc12 ; output its category
Ans. one

Qu. Input N#C[C@H]1CCN([C@H]2COc3ccccc3[C@@H]2Nc2ncnc3[nH]c(C4CC4)cc23)C1 [EP-0043271] ; output its category
Ans. two

Qu. Input c1ccc2c(c1)OC[C@H](N1CCC3(CCCO3)C1)[C@H]2Nc1ncnc2[nH]c(C3CC3)cc12 (single isomer, unassigned) [EP-0042935] ; output its category
Ans. three

Qu. Input N#C[C@H]1CCN([C@H]2COc3ccccc3[C@@H]2Nc2ncnc3[nH]c(C4CC4)cc23)C1 [EP-0042930] ; output its category
Ans. three

Qu. Input C[C@@H]1CN([C@H]2COc3ccc(F)cc3[C@@H]2Nc2ncnc3[nH]c(C(F)(F)F)cc23)CCO1 ; output its category
Ans. one

Qu. Input FC(F)C1CN([C@H]2COc3ccccc3[C@@H]2Nc2ncnc3[nH]c(C(F)(F)F)cc23)C1 ; output its category
Ans. one
